# credit: PubChem BioAssay AID330

# Tested on: P388 leukemia ip, CD2F1 mice, survival T/C
# test.method.notes: NCI In Vivo Anticancer Drug Screen. Data for tumor model P388 Leukemia (intraperitoneal) in CD2F1 (CDF1) mice
# reported.conditions: endpoint: median survival time; dose: 100.0 mg/kg/injection; schedule: Q04DX002 (ip); vehicle: saline with Tween-80; higher = longer survival
Toxic doses and inconclusive results are not listed.
Can you tell me T/C for the items I'm about to list?

### Prompt Which T/C is reported for this compound? "CC(=O)NS(=O)(=O)c1ccc(N=Cc2c3ccccc3nc3cc(Cl)ccc23)cc1"
### Response 101 % of control

### Prompt Which value of T/C has been reported for "O=S(=O)(CS(=O)(=O)Oc1ccccc1)Oc1ccccc1" in the records?
### Response 104 % of control

### Prompt What value of T/C has been reported for the following compound? OC1(c2ccncc2)C=CCC1 (stereo not given)
### Response 95 % of control

### Prompt Given the entry O=C1CSC(c2cccc(Cl)c2Cl)N1c1nncs1 (stereo not given) , report its measured T/C.
### Response 112 % of control

### Prompt # input compound: CC1(C)C2(C(N)=O)C(=O)NC(=O)C12C(=O)O (stereo not given) ; wanted: its T/C
### Response 103 % of control

###

# System: P388 leukemia ip, CD2F1 mice, survival T/C
# test.method.notes: NCI In Vivo Anticancer Drug Screen. Data for tumor model P388 Leukemia (intraperitoneal) in CD2F1 (CDF1) mice
# reported.conditions: endpoint: median survival time; dose: 200.0 mg/kg/injection; schedule: Q01DX009 (ip); vehicle: saline; higher = longer survival
Toxic doses and inconclusive results are not listed.
Hi there, I'd appreciate the recorded T/C for every entry that follows.

### Prompt Look up T/C: COc1ccc(C2CC(=O)C(C)C(c3ccc(OC)cc3)N2)cc1 (stereo not given)
### Response 100 % of control

### Prompt Suppose we examine the compound "Cn1c(=O)c2[nH]c(/N=N/N(CCCl)CCCl)nc2n(C)c1=O" ; what T/C value has been reported?
### Response 107 % of control

### Prompt Consider the compound "CC(=O)Nc1cc(NC(C)=O)c(N=O)c(NC(C)=O)n1" and give its measured T/C.
### Response 91 % of control

### Prompt So what does the record say about T/C for "O=P(N1CCCC1)(N1CCCC1)N1CCCC1" ?
### Response 101 % of control

### Prompt Find the recorded T/C belonging to C=C1CCOC2(C(O)C(C)(O)CO)NC(=O)C1(O)NC2=O (stereo not given) and report it.
### Response 103 % of control

### Prompt Field request: T/C | item: "CCn1c(=O)c2c(N(C)C)snc2n(CC)c1=O"
### Response 110 % of control

### Prompt Look up T/C for this compound: "Cc1ccc(Nc2ccc3c4c(cc(=O)n3C)-c3ccccc3C(=O)c24)c(S(=O)(=O)O)c1"
### Response 99 % of control

### Prompt Look at this compound and give its reported T/C. NC(Cc1ccc(OC(c2ccccc2)(c2ccccc2)c2ccccc2)cc1)C(=O)O (stereo not given)
### Response 90 % of control

### Prompt State the recorded T/C for this entry: "CC(N)=NC(C)C"
### Response 99 % of control

### Prompt Which T/C value is on record for "COc1cc2c(cc1O)-c1c(cnn1-c1ccccc1)CCC2" ?
### Response 94 % of control

### Prompt Look up T/C: "O=C(O)CSCCCCCCSCC(=O)O"
### Response 103 % of control

### Prompt Suppose we examine the compound Cc1c(C2=NCC(C)S2)ccc(O)c1S(=O)(=O)O (stereo not given) ; what T/C value has been reported?
### Response 101 % of control

### Prompt I'd like to know its T/C. The compound in question is "CN(C)CCCNC(=O)/C=C\C(=O)O"
### Response 94 % of control

### Prompt Return reported T/C; argument: C=CC(=O)NC(C)C(=O)O (stereo not given)
### Response 107 % of control

### Prompt Quick check: T/C of "COc1cc(OC)cc(C(C)(C)C)c1" ?
### Response 107 % of control

### Prompt So what does the record say about T/C for "CC(=O)NCNC(C)=O" ?
### Response 108 % of control

### Prompt # T/C lookup, item "N#Cc1cccnc1.NCCNCCN.[Br-].[Pt+4]"
### Response 102 % of control

### Prompt Quick one: T/C for "CNC(=S)N/N=C/c1ccccn1" ?
### Response 97 % of control

### Prompt Using the record for CCCC(N)P(=O)(O)O (stereo not given) , report its T/C.
### Response 96 % of control

### Prompt For the compound O=C1NC2(c3ccccc3)NC(=O)NC2(c2ccccc2)N1 (stereo not given) , what T/C is on record?
### Response 96 % of control

### Prompt Fill in the blank: the reported T/C of "CCN(Cc1c(C)[nH]c2ccc(N(C)C)cc2c1=O)Cc1c(C)[nH]c2ccc(N(C)C)cc2c1=O" is ____.
### Response 106 % of control

### Prompt Name the reported T/C value associated with the compound "Cn1c(C(=O)c2cc3ccccc3n2C)cc2ccccc21"
### Response 103 % of control

### Prompt # query: T/C of entry "CNC(=S)N/N=C(/C)CSCC(=O)OC"
### Response 91 % of control

### Prompt Name the recorded T/C for "COc1nccnn1" .
### Response 95 % of control

### Prompt // lookup T/C for CC1(C)C(N)C(C)(C)C1N (stereo not given)
### Response 86 % of control

###

# Test system: P388 leukemia ip, CD2F1 mice, survival T/C
# test.method.notes: NCI In Vivo Anticancer Drug Screen. Data for tumor model P388 Leukemia (intraperitoneal) in CD2F1 (CDF1) mice
# reported.conditions: endpoint: median survival time; dose: 60.0 mg/kg/injection; schedule: Q01DX005 (ip); vehicle: saline with Tween-80; higher = longer survival
Toxic doses and inconclusive results are not listed.
measurement.type: T/C

### Prompt Requested field: T/C. Item: OCC1OC2C(NC(=S)N2c2ccccc2)C(O)C1O (stereo not drawn)
### Response 101 % of control

### Prompt Given CCOCCOCCOC(C)Oc1ccc(Br)cc1 (stereo not drawn) , state its recorded T/C.
### Response 104 % of control

### Prompt Reported T/C, compound "O=c1[nH]c2cc(Cl)ccc2nc1/C=C(\O)c1ccc2ccccc2c1" : ____
### Response 89 % of control

### Prompt Could you tell me which T/C is on file for "Cc1cc(=O)c2c(ccc3c(=O)cc(C)[nH]c32)[nH]1" ?
### Response 91 % of control

### Prompt Tell me the measured T/C of "CCn1c(=O)c(Cl)c2n(C)c3ccccc3n2c1=O" , please.
### Response 97 % of control

### Prompt T/C for N=C1C=CC2C(=Nc3ccccc3[N+]2=O)N1Cc1ccncc1 (stereo not drawn) ?
### Response 98 % of control

### Prompt Need T/C of "Fc1c(F)c(F)c(CCc2c(F)c(F)c(F)c(F)c2F)c(F)c1F" , thanks.
### Response 99 % of control

### Prompt # query: T/C of entry "N#C/C(=C\Nc1ccccn1)C(=O)C1CC1"
### Response 100 % of control

### Prompt Any idea what T/C was measured for "Cn1c(=S)sc2nc3ccccc3n2c1=S" ?
### Response 121 % of control

### Prompt Can you share its T/C? I mean this compound: "CCOC(=O)Nc1cc2c(cn1)[nH]c1ccccc12"
### Response 105 % of control

### Prompt // query T/C value for entry "CCO/C=C1/N=C(c2ccc(Cl)cc2)OC1=O"
### Response 121 % of control

### Prompt For the compound "CC(=O)c1c(Br)c2c3ccccc3c3ccccc3n2c1C" , what T/C is on record?
### Response 107 % of control

### Prompt Consider the compound shown here: "COC(=O)/C(C(C)=O)=C(\OC(C)=O)c1ccc(OC)c(OC)c1" What is its recorded T/C?
### Response 94 % of control

### Prompt Form field: reported T/C of Cc1ccc(N2C(=O)C3CSCN3C2=O)cc1 (stereo not drawn)
### Response 101 % of control

### Prompt Which measured T/C value corresponds to "CCOC(=O)c1ccc(NC(=O)OC2CCCC2)cc1" ?
### Response 92 % of control

### Prompt Record request: T/C value, item CCN(CC)CCS(=O)Cc1ccccc1 (stereo not drawn)
### Response 100 % of control

### Prompt What value of T/C has been recorded for this entry: "CCOC(=O)CCc1c(-c2ccccc2)[nH]c2ccccc12"
### Response 106 % of control

### Prompt What T/C value was documented for this compound, "C[Si](C)(CNCCN)c1ccccc1" ?
### Response 101 % of control
